Can you tell me growth for the items I'm about to list?
Tested on: MALME-3M melanoma
Test: NCI-60 one-dose screen, 48 h (100 = growth as untreated, 0 = no growth, -100 = all killed)
Settings: 10 µM unless noted
About 83,000 compounds went through this panel and 20% of them were active in at least one assay; those are over-represented in the sample as a whole. The source made the active and inactive calls. Rule for the calls: active = growth percent below 10; inactive = the rest.

Answered cases to consult:
> print(dat)
                                   molecule      result.value
1  Nc1ccn(C2O[C@H](CO)[C@@H](O)[C@H]2O)c(=O)n1 (some centres undefined)   109% (inactive)
2  CC(=O)n1cc(-c2c[nH]c3ccccc23)c(-c2ccc(Cl)cc2)n1  87.2% (inactive)
3  Cc1nc2ccccc2c(/C=C/c2ccccc2)c1C(=O)/C=C/c1ccc(Cl)cc1  40.8% (inactive)
4  CN1C(=O)N(C)C2(c3ccccc3)n3c(s/c(=C\c4ccccc4)c3=O)=NNC12c1ccccc1 (centres undefined)  86.9% (inactive)
5  O=Nc1c(O)ccc2ccccc12.O=Nc1c(O)ccc2ccccc12.O=Nc1c([O-])ccc2ccccc12.[Fe+3]  95.8% (inactive)

I have 4 molecules here; please give me growth for each one.
1. O=C(Nc1ncc(Cc2cccc(C(F)(F)F)c2)s1)C1COc2ccccc2O1 (centres undefined)
2. Nc1ccc(-c2nn3c(CCC(=O)c4nc5ncccc5[nH]4)nnc3s2)c(O)c1
3. CCCN1C(=O)N(CCC)C2C1NN=c1s/c(=C3\C(=O)N(C(C)C)c4ccccc43)c(=O)n12 (centres undefined)
4. CCOC(=O)CSc1c(-c2ccccc2)c2cc(Cl)ccc2[nH]c1=O

A:
71.8% (inactive)
93% (inactive)
36.5% (inactive)
114% (inactive)
